Target: human P2X3 receptor (Homo sapiens, UniProt P56373)
Sequence (P56373 whole entry): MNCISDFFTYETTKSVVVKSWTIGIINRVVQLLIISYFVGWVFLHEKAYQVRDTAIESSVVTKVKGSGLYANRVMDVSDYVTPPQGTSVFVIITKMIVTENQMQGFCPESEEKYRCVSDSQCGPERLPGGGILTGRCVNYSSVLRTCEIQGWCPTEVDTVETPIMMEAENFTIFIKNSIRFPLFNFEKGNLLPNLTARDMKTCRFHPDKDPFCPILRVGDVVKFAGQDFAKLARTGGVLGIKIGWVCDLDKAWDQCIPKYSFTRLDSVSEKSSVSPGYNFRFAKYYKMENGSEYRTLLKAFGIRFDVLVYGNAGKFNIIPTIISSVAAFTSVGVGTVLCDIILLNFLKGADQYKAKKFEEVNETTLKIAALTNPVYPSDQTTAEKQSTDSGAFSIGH
Experiment: Inhibition of ATP-induced calcium fluorescence (Fluo-3, FDSS 3000) in C6BU-1 cells stably expressing human P2X3 receptor
Settings: C6BU-1 cell transfected with human P2X3 receptor gene; 40 nM ATP solution; Fluo-3 fluorescence intensity
Quantity name: IC50 (nM)

1. CC(C)(C)c1n[nH]c2c1C(C1CCCCC1)N(c1ccc(-c3ccon3)cc1)C2=O (stereo not shown) = 920
2. CCOC(=O)c1ccc(N2C(=O)C(=NOC)C(C(=O)c3ccc(OC)cc3)C2c2ccccc2)cc1 (stereo not shown) = 1510

A: C#Cc1ccc(N2C(=O)c3[nH]nc(C(C)(C)C)c3C2c2ccc(F)cc2)cc1 (stereo not shown)
B: CCCCC(=O)C1=C(O)C(=O)N(c2ccc(-c3ccon3)cc2)C1c1ccccc1OC (stereo not shown)
Could you determine which record has the numerically smaller IC50? Candidates: A and B Mark your selection by writing its label.
B
(B: 860 nM, A: 1310 nM)
